molecular target: Neu5Ac(a2-3)Gal6S(b1-4)[Fuc(a1-3)]GlcNAc; assay: glycan array binding signal (z-score within array); higher = stronger binding; details: glycan notation: IUPAC condensed, linker removed
The sample as a whole holds a higher share of the strongest signals than the screen did.
Property measured: glycan array binding signal (z-score)
Reply: number alone, nothing else.

Reference set (3 entries):
binder="Dectin2 (Homo sapiens), Q6EIG7 (protein) MMQEQQPQSTEKRGWLSLRLWSVAGISIALLSACFIVSCVVTYHFTYGETGKRLSELHSYHSSLTCFSEGTKVPAWGCCPASWKSFGSSCYFISSEEKVWSKSEQNCVEMGAHLVVFNTEAEQNFIVQQLNESFSYFLGLSDPQGNNNWQWIDKTPYEKNVRFWHLGEPNHSAEQCASIVFWKPTGWGWNDVICETRRNSICEMNKIYL" property_measured="glycan array binding signal (z-score)" numeric_value=-0.193
binder="rCnSL-proA (Clitocybe nebularis) (protein) AAFFSLVVLLALLPFGIHASALPSTELTPRVNPNLPGPNDVFVGFRGTNNIVGAIYEKDGIKDTPLNNGADAEMGPGSYITDGLFTARIFASGSAGNNPGTTATVCKIYASGVQWRGAPKGYIPVAYFGNGPTAEQRRQTYLRTLGLPGTAIRFGNLNTNPGQGPTAPRQMVVPPGPLRSLLKASCFPAADTRLPQTLHYFEKRVDWNIITAADSQTWGH" property_measured="glycan array binding signal (z-score)" numeric_value=-0.672
binder="LgFlo1 (Saccharomyces pastorianus), B3IUA8 (protein) SGSTQACLPVGSRKNGMNVNFYKYSLQDSTTYSDPQYMAYKYSDTKKLGSVSGQTHLSIYYGPNTAFWNTASWSSDLFGFYTTPTNVTVEMTGYFLPPQTGSYTFKFATVDDSAILSVGGSIAFECCAQEQPPITSTDFTINGIKPWDAATPTDIKGSTYMYAGYYYPIKIVYSNAKALARLPVSVVLPDGTEVNDDFEGYVYSFDDDLSQSNCTIPDPSKHTTS" property_measured="glycan array binding signal (z-score)" numeric_value=-0.151

Turning to the following binder.
Problem: If you can, please state the reported glycan array binding signal (z-score) value of Arath Fbox (Arabidopsis thaliana), NP_178341.1 (protein) EFTWGRKRRVKSESSPFDSFPEDCISYIISFTNPRDACVAATVSKTFESTVKSDIIWEKFLPADYESLIPPSRVFSSKKELYFSLCNDPVLFDDDKKSVWLEKASGKRCLMLSAMNLSIIWGDNPQYWQWIPIPESRFEKVAKLRDVCWFEIRGRTNTRVLSPRTRYSAYIVFKGVDKCYGFQNVAIEAAVGVVGQEPSRRLICFSEAIRRGRRNVVKPKQREDGWMEIELGEFFNDGGIMDNDEIEMSALETKQLNRKCGLIIQGIEIRPAKILAAAAASFLEQKLISEEDLNSAVDHHHHHH .
Solution: -0.559
